Molecular target: human full-length CD33 (CD33^FL) (UniProt P20138 18-364)
Sequence (P20138 18-364): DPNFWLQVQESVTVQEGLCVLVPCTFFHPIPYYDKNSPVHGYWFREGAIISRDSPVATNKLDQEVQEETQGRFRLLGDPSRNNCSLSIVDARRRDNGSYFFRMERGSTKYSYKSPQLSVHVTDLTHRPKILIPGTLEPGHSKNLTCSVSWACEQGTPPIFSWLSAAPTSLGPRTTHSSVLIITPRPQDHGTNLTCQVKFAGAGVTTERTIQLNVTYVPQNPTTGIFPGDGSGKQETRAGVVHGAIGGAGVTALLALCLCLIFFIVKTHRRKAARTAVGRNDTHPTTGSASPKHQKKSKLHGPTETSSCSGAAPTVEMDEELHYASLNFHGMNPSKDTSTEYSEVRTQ
Assay: SPR (Carterra); hybridoma supernatant
Metric: Kd (nM)
Quick note: give the figure in nM, leave out the unit.

See these solved cases before continuing.
Binder: 1H10 antibody (human CD33^PAN antibody clone, hybridoma-derived) (antibody, V domains shown) VH: QVQLVQSGAEVKKPGASVKVSCKGSGYIFTSYDMHWVRQAPGQGLEWMGIIDPSGGSTSYAQKFQGRVTMTRDTSMSTVYMELSSLRSEDTAVYYCTRDYSWSYFDYWGQGTLVTVSS VL: AIQMTQSPSSLSASVGDRVTITCRASQGIRIYLGWYQQKPGKAPKLLIYATSSLQSGVPSRFSGSGSGTDFTLTISSLQPEDFATYYCLQDYNYPWTFGQGTKVEIK
Kd [nM]: 112
//
Binder: 1A9 antibody (human CD33^PAN antibody clone, hybridoma-derived) (antibody, V domains shown) VH: EVQLVESGGGLVQPGGSLRLSCAASGFTFSIYDMHWVRQATGKGLEWVSAIGTAGDTYYAGSVKGRFTISRENAKNSLYLQMNSLRAGDTAVYYCAREYSGYYFDYWGQGTLVTVSS VL: AIQMTQSPSSLSASVGDRVTITCRASQDIRNDLGWYQQKPGKAPKILIYGASSLQSGVPSRFSGSGSGTDFTFTISSLQPEDFATYYCLQEYNYPCTFGQGTKLEIK
Kd [nM]: 67

Find the measured Kd of 1E6 antibody (human CD33^PAN antibody clone, hybridoma-derived) (antibody, V domains shown) VH: QVQLVESGGGVVQPGRSLRLSCAASGFTFSSYDIHWVRQAPGKGLEWVAVIWYDGSHNYYSDSVKGRFTISRDNSKNTLYLQMNSLRAEDTAVYYCARDYSGSYYDYWGQGTLVTVSS VL: AIQMTQSPSSLSASVGDRVTITCRASQGIRNDLGWYQQKPGKAPKLLIYAASNLQSGVPSRFSGSGSGTDFTLTISSLQPEDFATYYCLQDYSYPRTFGQGTKVEIK and report it.
69

Note down Kd recorded for 1D2 antibody (human CD33^PAN antibody clone, hybridoma-derived) (antibody, V domains shown) VH: QVQLVESGGGVVQPGRSLRLSCAASGFTFSSYDIHWVRQAPGKGLEWVAVIWYDGSQKYYADSVKGRFTISRDNSKNTLYLQMNSLRAEDTAVYYCARDYSGSYYDYWGQGTLVTVSS VL: AIQMTQSPSSLSASVGDRVTITCRASQGIRNDLGWYQQKPGKAPELLIYATSSLQSGVPSRFSGSGSGTDFTLIISSLQPEDFATYYCLQDYSYPRTFGQGTKVEIK
116
